tgt: T1, soluble human TLR3 extracellular domain (human, UniProt O15455 24-703)
T1 construct: also called hTLR3 extracellular domain; extracellular domain of human TLR3
testProtocol: ELISA, TLR3 binding assay as in Example 20
valueKind: EC50 (µg/mL)
Value expressed in µg/mL; do not type the unit.

Ask: # query: EC50 of entry human-adapted C1068 variant mAb HBV4 (Vh CDR2 F64G in the HV1/LV1 background) (antibody, V domains shown, Made in the HV1/LV1 background; not shown: human kappa light chain constant region) VH: QVQLVQSGAEVKKPGASVKVSCKASGYTFTTYWIHWVRQAPGQRLEWMGEINPNNGRINYNEKGKTRVTITRDTSASTAYMELSSLRSEDTAVYYCARVGVMITTFPYWGQGTLVTVSS VL: DIQMTQSPSSLSASVGDRVTITCRASGNIHNYLAWYQQKPGKAPKLLIYNAKTLADGVPSRFSGSGSGTDFTLTISSLQPEDFATYYCQHFWSTPFTFGQGTKLEIK
Reply: 0.0409
